# Test system: 777334-354-R2-J4-PDC tumor spheroids with HUVEC/MSC, viability
# testDetails: Anticancer human tumor 777334-354-R2-J4-PDC patient-derived pancreatic adenocarcinoma cell line growth inhibition [GQUAD]
# conditionDetails: second compound 10 µM; first compound 3.16 µM; active compounds read low
measurementLabel: viability, T/C (%)
Record the value in %, omitting the unit from your answer.

Problem: I am curious: what viability, T/C value has been reported for COc1cccc2c1C(=O)c1c(O)c3c(c(O)c1C2=O)CC(O)(C(=O)CO)CC3OC1CC(N)C(O)C(C)O1 (stereo not drawn) + CN(C)c1ccc(Nc2c3ccc(NC(=O)CCN4CCCC4)cc3nc3cc(NC(=O)CCN4CCCC4)ccc23)cc1 ?
Result: 22.3

Problem: Try this compound too: CCCS(=O)(=O)Nc1ccc(F)c(C(=O)c2c[nH]c3ncc(-c4ccc(Cl)cc4)cc23)c1F + Cc1[nH]c2ccc(F)cc2c1-c1nc2c3cccnc3c3ncccc3c2[nH]1
Result: 28.4

Problem: Proceed to CCCS(=O)(=O)Nc1ccc(F)c(C(=O)c2c[nH]c3ncc(-c4ccc(Cl)cc4)cc23)c1F + Cc1cnc(CNC(=O)c2c(=O)c3ccc(N4CCCN(C)CC4)nc3n3c2sc2ccccc23)cn1
Result: 65.2

---

# System: 777334-354-R2-J4-PDC tumor spheroids with HUVEC/MSC, viability
# testDetails: Anticancer human tumor 777334-354-R2-J4-PDC cell line growth inhibition [GQUAD];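 further: spheroids exposed to compounds for 7 days before readout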
# conditionDetails: second compound 0.316 µM; first compound 1 µM; active compounds read low
measurementLabel: viability, T/C (%)
Your answer should be a plain number; it is taken to be in %.

Problem: What value of viability, T/C has been recorded for this entry: COc1ccc([C@@H](O)c2cc(-c3ncnc4cc(N5CCOCC5)ccc34)c(F)cc2Cl)nn1 + Cc1[nH]c2ccc(F)cc2c1-c1nc2c3cccnc3c3ncccc3c2[nH]1
Result: 80.3

Problem: Next up: O=C(c1cc(Cc2n[nH]c(=O)c3ccccc23)ccc1F)N1CCN(C(=O)C2CC2)CC1 + CN(C)c1ccc(Nc2c3ccc(NC(=O)CCN4CCCC4)cc3nc3cc(NC(=O)CCN4CCCC4)ccc23)cc1
Result: 81

Problem: Would you mind doing C=CC(=O)N1CCN(c2nc(=O)n(-c3c(C)ccnc3C(C)C)c3nc(-c4c(O)cccc4F)c(F)cc23)C(C)C1 (stereo not given) + Cc1[nH]c2ccc(F)cc2c1-c1nc2c3cccnc3c3ncccc3c2[nH]1 as well?
Result: 108

Problem: Record: COc1ccc([C@@H](O)c2cc(-c3ncnc4cc(N5CCOCC5)ccc34)c(F)cc2Cl)nn1 + CN(C)c1ccc(Nc2c3ccc(NC(=O)CCN4CCCC4)cc3nc3cc(NC(=O)CCN4CCCC4)ccc23)cc1
Result: 68.7

Problem: Moving on to the next molecule: CC1COCCN1c1cc(C2(O)CC3CCC(C2)O3)c2cnn(-c3ccn[nH]3)c2n1 (stereo not given) + Cc1cnc(CNC(=O)c2c(=O)c3ccc(N4CCCN(C)CC4)nc3n3c2sc2ccccc23)cn1
Result: 37.1

Problem: Subsequent entry: O=C(c1cc(Cc2n[nH]c(=O)c3ccccc23)ccc1F)N1CCN(C(=O)C2CC2)CC1 + Cc1[nH]c2ccc(F)cc2c1-c1nc2c3cccnc3c3ncccc3c2[nH]1
Result: 103

Problem: Next molecule up: O=C(c1cc(Cc2n[nH]c(=O)c3ccccc23)ccc1F)N1CCN(C(=O)C2CC2)CC1 + Cc1cnc(CNC(=O)c2c(=O)c3ccc(N4CCCN(C)CC4)nc3n3c2sc2ccccc23)cn1
Result: 75.1

Problem: Another molecule to check: CC1COCCN1c1cc(C2(O)CC3CCC(C2)O3)c2cnn(-c3ccn[nH]3)c2n1 (stereo not given) + Cc1[nH]c2ccc(F)cc2c1-c1nc2c3cccnc3c3ncccc3c2[nH]1
Result: 39.8

Problem: Same question, CC(=O)O[C@H]1C(=O)[C@@]2(C)[C@H]([C@H](OC(=O)c3ccccc3)[C@]3(O)C[C@H](OC(=O)[C@H](O)[C@@H](NC(=O)c4ccccc4)c4ccccc4)C(C)=C1C3(C)C)[C@]1(OC(C)=O)CO[C@@H]1C[C@@H]2O + CN(C)c1ccc(Nc2c3ccc(NC(=O)CCN4CCCC4)cc3nc3cc(NC(=O)CCN4CCCC4)ccc23)cc1 this time
Result: 41.2

Problem: Try the molecule Cc1cccc(N(C)C(=O)C2C(O)CCN2c2nc(C)cc(C(F)(F)F)c2C#N)c1 (stereo not given) + CN(C)c1ccc(Nc2c3ccc(NC(=O)CCN4CCCC4)cc3nc3cc(NC(=O)CCN4CCCC4)ccc23)cc1
Result: 89.1
